# target_desc: homotetrameric CNGA2 channels (Rattus norvegicus, UniProt Q00195)
# Construct: expressed in transfected cells; host or cells: Xenopus laevis oocytes (cRNA injection), excised inside-out patches
# Sequence (Q00195 whole entry): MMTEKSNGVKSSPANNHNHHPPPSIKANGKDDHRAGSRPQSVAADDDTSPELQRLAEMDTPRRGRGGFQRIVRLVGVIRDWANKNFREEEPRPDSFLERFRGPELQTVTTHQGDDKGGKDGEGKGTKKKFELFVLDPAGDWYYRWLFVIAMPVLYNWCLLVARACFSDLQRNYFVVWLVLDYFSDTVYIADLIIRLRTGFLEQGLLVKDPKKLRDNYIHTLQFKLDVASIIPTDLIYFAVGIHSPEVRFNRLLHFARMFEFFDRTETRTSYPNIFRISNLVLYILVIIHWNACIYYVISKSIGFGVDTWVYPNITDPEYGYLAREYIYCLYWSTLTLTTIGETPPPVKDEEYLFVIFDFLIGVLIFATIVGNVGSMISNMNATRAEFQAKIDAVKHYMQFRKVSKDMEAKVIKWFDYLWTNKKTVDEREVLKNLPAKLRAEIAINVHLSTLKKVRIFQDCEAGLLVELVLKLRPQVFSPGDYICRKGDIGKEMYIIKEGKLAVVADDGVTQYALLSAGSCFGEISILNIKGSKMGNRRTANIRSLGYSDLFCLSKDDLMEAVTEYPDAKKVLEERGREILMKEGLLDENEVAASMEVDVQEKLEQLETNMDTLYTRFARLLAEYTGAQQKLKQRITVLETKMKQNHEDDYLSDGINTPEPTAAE
# assay_details: Concentration-activation relationship, inside-out patch-clamp, Xenopus oocytes
# Type: biochemical
# assay_context: fit with Equation 1
# Protocol: Patch-clamp experiments were performed using an Axopatch 200B amplifier (Molecular Devices LLC, CA, U.S.A.) in the inside-out configuration. The patch pipettes for recording of macroscopic currents were pulled from borosilicate glass tubing (outer diameter 2.0 mm, inner diameter 1.0 mm; Hilgenberg GmbH, Germany). […] The patches were formed as pushed inside-out patches. […] The currents were measured at +10 mV or, if mentioned, at +100 mV. […]
assay_metric: EC50 (µM)
Reply with just the number (in µM).

Quick check: EC50 of Nc1nc2c(ncn2[C@@H]2O[C@@H]3COP(=O)(O)O[C@H]3[C@H]2O)c(=O)[nH]1 [cGMP] ?
1.74
